The origin of these recorded values is ChEMBL document CHEMBL1139993.

# tested target: UniProt:P20916
# Sequence (P20916 whole entry, the tested form may be a part): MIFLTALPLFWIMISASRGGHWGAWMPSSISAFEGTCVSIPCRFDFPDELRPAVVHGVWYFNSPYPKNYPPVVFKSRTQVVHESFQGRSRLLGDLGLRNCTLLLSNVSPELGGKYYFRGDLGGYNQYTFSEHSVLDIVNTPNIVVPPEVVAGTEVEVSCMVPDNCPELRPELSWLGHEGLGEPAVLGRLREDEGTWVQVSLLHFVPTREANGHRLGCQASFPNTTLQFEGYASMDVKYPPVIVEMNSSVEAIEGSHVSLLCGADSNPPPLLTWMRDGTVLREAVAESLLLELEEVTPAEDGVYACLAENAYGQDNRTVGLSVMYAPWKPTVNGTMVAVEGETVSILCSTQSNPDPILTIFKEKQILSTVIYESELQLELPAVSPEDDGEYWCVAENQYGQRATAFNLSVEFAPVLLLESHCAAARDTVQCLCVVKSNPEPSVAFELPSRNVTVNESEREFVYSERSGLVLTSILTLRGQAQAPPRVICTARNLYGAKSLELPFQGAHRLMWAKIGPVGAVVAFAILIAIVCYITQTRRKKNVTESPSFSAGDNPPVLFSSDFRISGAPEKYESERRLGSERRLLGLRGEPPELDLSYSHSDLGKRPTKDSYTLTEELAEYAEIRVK
# experiment description: Inhibition of MAG N-terminal three domains expressed in CHO cells relative to Gal-beta-(1-3)-GalNAc-OSE
# Format: cell-based
measured parameter: Activity

I: CC(=O)N[C@H]1[C@H]([C@@H](O)[C@H](O)CNC(=O)c2ccc(Cl)cc2Cl)O[C@@](OCc2ccccc2)(C(=O)O)C[C@@H]1O
II: CC(=O)N[C@H]1[C@H]([C@@H](O)[C@H](O)CNC(=O)c2cc(=O)[nH]c(=O)[nH]2)O[C@@](OCc2ccccc2)(C(=O)O)C[C@@H]1O
III: CC(=O)N[C@H]1[C@H]([C@@H](O)[C@H](O)CNC(=O)c2ccc(Cl)c(Cl)c2)O[C@@](OCc2ccccc2)(C(=O)O)C[C@@H]1O
Q. Put the items above in order of decreasing Activity. Give me the labels in the order the question wants.
A. III, I, II
(III: 690, I: 35, II: 6.7)

1: CCCC(=O)NC[C@@H](O)[C@H](O)[C@@H]1O[C@@](OCc2ccccc2)(C(=O)O)C[C@H](O)[C@H]1NC(C)=O
2: CC(=O)N[C@H]1[C@H]([C@@H](O)[C@H](O)CNC(=O)c2cccc(Cl)c2)O[C@@](OCc2ccccc2)(C(=O)O)C[C@@H]1O
Q. Looking at 1 and 2 , which one comes out lower in Activity terms? Write down the label of the entry you select.
A. 1
